# IC50 per record follows
Target: α1G T-type calcium channels (Homo sapiens)
Sequence (O43497 whole entry): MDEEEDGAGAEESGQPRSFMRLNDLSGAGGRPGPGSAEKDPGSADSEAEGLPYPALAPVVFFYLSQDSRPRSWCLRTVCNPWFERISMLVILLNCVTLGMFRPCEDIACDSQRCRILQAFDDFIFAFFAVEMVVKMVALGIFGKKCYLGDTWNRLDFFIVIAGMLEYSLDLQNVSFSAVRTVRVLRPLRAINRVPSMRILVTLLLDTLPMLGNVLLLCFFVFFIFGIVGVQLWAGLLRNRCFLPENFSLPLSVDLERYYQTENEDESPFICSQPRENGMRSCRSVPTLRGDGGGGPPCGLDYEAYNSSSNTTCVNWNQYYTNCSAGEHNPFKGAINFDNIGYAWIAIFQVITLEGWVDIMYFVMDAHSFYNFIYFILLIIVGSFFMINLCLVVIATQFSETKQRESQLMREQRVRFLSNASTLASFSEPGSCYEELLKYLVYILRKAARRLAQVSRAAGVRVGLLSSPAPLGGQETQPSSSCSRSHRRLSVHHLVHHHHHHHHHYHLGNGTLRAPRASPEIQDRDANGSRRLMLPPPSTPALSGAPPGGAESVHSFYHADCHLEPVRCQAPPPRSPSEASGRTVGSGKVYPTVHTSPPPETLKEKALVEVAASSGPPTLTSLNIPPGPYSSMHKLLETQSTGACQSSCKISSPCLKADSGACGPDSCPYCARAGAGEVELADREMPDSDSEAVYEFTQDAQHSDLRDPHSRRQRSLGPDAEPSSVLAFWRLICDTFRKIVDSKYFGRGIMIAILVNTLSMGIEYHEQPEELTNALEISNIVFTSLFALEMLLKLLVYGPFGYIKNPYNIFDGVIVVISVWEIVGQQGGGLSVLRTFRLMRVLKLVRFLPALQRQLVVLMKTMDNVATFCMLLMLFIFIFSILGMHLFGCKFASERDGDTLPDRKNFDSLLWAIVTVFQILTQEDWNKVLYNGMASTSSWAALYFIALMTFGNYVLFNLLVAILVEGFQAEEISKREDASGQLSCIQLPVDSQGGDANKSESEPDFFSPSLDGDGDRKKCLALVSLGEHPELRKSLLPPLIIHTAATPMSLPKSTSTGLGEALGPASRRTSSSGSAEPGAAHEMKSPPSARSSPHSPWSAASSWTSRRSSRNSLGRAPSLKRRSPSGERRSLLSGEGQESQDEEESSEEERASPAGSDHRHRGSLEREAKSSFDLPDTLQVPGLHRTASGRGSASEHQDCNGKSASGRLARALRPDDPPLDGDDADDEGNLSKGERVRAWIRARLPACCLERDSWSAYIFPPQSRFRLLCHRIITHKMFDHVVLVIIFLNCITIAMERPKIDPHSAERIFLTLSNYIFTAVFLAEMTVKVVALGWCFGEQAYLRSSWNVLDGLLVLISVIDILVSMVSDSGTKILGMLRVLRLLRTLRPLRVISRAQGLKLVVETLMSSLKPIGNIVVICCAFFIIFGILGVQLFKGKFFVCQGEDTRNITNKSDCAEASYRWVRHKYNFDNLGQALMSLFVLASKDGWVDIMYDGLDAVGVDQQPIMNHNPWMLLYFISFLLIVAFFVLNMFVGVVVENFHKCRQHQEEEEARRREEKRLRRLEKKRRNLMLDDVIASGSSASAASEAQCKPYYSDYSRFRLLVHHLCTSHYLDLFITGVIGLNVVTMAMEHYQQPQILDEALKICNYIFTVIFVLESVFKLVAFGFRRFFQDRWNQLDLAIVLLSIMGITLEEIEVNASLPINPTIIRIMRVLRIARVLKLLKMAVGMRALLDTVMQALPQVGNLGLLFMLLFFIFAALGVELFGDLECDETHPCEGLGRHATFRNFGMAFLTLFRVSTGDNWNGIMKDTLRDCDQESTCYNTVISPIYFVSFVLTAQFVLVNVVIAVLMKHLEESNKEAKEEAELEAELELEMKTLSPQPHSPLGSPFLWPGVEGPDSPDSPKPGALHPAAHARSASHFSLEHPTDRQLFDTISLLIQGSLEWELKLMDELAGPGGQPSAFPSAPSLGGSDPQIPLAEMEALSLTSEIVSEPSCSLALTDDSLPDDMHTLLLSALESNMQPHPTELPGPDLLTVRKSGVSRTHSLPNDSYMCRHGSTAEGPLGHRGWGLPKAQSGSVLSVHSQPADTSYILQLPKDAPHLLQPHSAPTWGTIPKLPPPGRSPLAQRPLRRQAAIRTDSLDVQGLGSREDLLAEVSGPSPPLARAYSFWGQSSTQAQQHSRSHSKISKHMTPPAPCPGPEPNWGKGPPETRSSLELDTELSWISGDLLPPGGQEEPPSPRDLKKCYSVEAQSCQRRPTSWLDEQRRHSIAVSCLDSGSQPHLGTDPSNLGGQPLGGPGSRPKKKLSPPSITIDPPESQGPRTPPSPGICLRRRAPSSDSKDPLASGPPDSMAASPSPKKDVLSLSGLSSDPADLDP
Experiment: T-type calcium channel activity using electrophysiological whole-cell patch-clamp technique
Details: HEK293 cells expressing α1G T-type calcium channels

O=C(CCn1ccnc1-c1ccccc1)NCCN1CCN(c2ccc(F)cc2)CC1 :: 14.5 µM
Cc1cccc(N2CCN(C(=O)CCn3cnc(-c4ccccc4)c3)CC2)c1C :: 4.89 µM
O=C(CCn1cnc(-c2ccccc2)c1)N1CCN(c2cccc(Cl)c2)CC1 :: 4.35 µM

## Task Enter IC50 (test system α1G T-type calcium channels (Homo sapiens)) for O=C(CCn1cnc(-c2ccccc2)c1)NCCN1CCN(C(c2ccccc2)c2ccccc2)CC1
## Result 8.66 µM

## Task Write IC50 of O=C(CCn1ccnc1-c1ccccc1)NCCN1CCN(C(c2ccccc2)c2ccccc2)CC1 ; system used: α1G T-type calcium channels (Homo sapiens)
## Result 18 µM

## Task State measured IC50 of the molecule O=C(CCn1ccnc1-c1ccccc1)N1CCN(C(c2ccccc2)c2ccccc2)CC1 with α1G T-type calcium channels (Homo sapiens).
## Result 3.67 µM

## Task Under α1G T-type calcium channels (Homo sapiens): report IC50 of O=C(CCn1cnc(-c2ccccc2)c1)N1CCN(c2ccccc2F)CC1 .
## Result 22.3 µM

====

Molecular target: α1G T-type calcium channels (Homo sapiens)
Construct: host or cells: HEK293
Assay: T-type calcium channel activity using the FDSS6000 (HTS, Fluo-3/AM, KCl-induced intracellular calcium change)
Format: cell-based
Conditions: percent inhibition at 10 μM; HEK293 cells stably expressing α1G T-type calcium channels and Kir2.1; KCl 75 mM activation; read-out: FDSS (%, 10 μM)
test readout: inhibition at 10 µM (%)
Please reply with the bare figure in % and do not write the unit itself.

Take a look at these entries with their results.
O=C(CCn1ccnc1-c1ccccc1)N1CCN(C(c2ccccc2)c2ccccc2)CC1 :: 54.7
CCN1CCN(C(=O)CCn2ccnc2-c2ccccc2)CC1 :: 23.4
O=C(CCn1ccnc1-c1ccccc1)N1CCN(Cc2ccc(F)cc2)CC1 :: 36.8
Cc1ccc(N2CCN(CCNC(=O)CCn3ccnc3-c3ccccc3)CC2)c(C)c1 :: 40.5
COc1ccc(N2CCN(C(=O)CCn3cnc(-c4ccccc4)c3)CC2)cc1 :: 37.8
Cc1ccc(N2CCN(C(=O)CCn3ccnc3-c3ccccc3)CC2)c(C)c1 :: 34.3

## Task Tell me its inhibition at 10 µM given O=C(CCn1cnc(-c2ccccc2)c1)NCCN1CCN(c2ccccc2)CC1 as the entry.
## Result 30.7

## Task Dear colleague, please send me the reported inhibition at 10 µM for Cc1cccc(N2CCN(C(=O)CCn3cnc(-c4ccccc4)c3)CC2)c1C when you can.
## Result 55.5

====

Reported inhibition at 10 µM is given for each of the following compounds.
Biological target: α1G T-type calcium channels (Homo sapiens)
Construct: host or cells: HEK293
Assay: T-type calcium channel activity using the FDSS6000 (HTS, Fluo-3/AM, KCl-induced intracellular calcium change)
Assay type: cell-based
Details: percent inhibition at 10 μM; HEK293 cells stably expressing α1G T-type calcium channels and Kir2.1; KCl 75 mM activation; read-out: FDSS (%, 10 μM)
Return type: number; implicit unit %.

O=C(CCn1ccnc1-c1ccccc1)NCCN1CCN(C(c2ccccc2)c2ccccc2)CC1 :: 60.8
COc1ccc(N2CCN(CCNC(=O)CCn3cnc(-c4ccccc4)c3)CC2)cc1 :: 33
O=C(CCn1cnc(-c2ccccc2)c1)NCCN1CCN(c2cccc(Cl)c2)CC1 :: 36.9
Cc1ccc(N2CCN(C(=O)CCn3cnc(C)c3)CC2)c(C)c1 :: 33.8

## Task Find the measured inhibition at 10 µM of O=C(CCn1ccnc1-c1ccccc1)N1CCN(Cc2ccc(Cl)c(Cl)c2)CC1 and report it.
## Result 39.3

## Task Determine its reported inhibition at 10 µM: O=C(CCn1cnc(-c2ccccc2)c1)NCCN1CCN(Cc2ccc(F)cc2)CC1
## Result 36.7

## Task Note inhibition at 10 µM for the compound shown: Cc1nccn1CCC(=O)NCCN1CCN(C(c2ccccc2)c2ccccc2)CC1
## Result 41.4

## Task Input O=C(CCn1cnc(-c2ccccc2)c1)NCCN1CCN(C(c2ccccc2)c2ccccc2)CC1 , output reported inhibition at 10 µM.
## Result 49.6
